Target: COX-2 (Ovis aries)
Construct: purchased Cayman Chemical
Sequence (P79208 17-603): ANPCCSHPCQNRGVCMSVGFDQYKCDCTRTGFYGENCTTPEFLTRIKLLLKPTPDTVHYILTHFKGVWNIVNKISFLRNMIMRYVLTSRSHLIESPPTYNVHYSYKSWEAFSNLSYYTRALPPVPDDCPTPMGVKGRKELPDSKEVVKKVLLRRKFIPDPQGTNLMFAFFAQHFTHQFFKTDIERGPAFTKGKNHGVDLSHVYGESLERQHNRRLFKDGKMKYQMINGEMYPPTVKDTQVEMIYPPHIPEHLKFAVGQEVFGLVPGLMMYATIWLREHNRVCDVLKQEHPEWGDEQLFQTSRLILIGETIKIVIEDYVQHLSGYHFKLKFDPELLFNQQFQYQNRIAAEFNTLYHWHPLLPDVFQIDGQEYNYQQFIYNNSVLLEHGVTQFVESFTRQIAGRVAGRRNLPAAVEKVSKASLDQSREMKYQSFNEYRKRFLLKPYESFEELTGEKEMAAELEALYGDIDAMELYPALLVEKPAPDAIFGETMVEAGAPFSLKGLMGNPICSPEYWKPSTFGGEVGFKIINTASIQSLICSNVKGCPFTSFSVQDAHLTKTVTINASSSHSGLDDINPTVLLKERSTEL
Assay: biochemical
Conditions: in-vitro COX-2 selectivity index
QUANTITY MEASURED: Selectivity Index (COX-1 IC50/COX-2 IC50)

Consider the following illustrative entries.
COMPOUND	OBSERVED VALUE
CS(=O)(=O)c1ccc(-c2cc(Cn3ccnc3)c3ccc4ccccc4c3n2)cc1 [Compound 9c]	527.9
CS(=O)(=O)c1ccc(-c2cc(Cn3ccnc3)c3ccc4c(c3n2)CCCC4)cc1 [Compound 9d]	547.6

1. Cc1ccc2c(Cn3ccnc3)cc(-c3ccc(S(C)(=O)=O)cc3)nc2c1C [Compound 9b]
2. CS(=O)(=O)c1ccc(-c2cc(Cn3ccnc3)c3ccccc3n2)cc1 [Compound 9e]
3. CS(=O)(=O)c1ccc(-c2cc(Cn3ccnc3)c3cccc(-c4ccccc4)c3n2)cc1 [Compound 9a]
(Q) # ascending order, key=Selectivity Index (COX-1 IC50/COX-2 IC50) Reply with the labels, ordered as the question asks.
(A) 2, 1, 3
(2: 179.9, 1: 288.9, 3: 423.9)

====

The following compounds are shown together with reported melting point values.

Some solved cases for reference:
SMILES RECORD	OBSERVED VALUE
Cc1ccc2c(Cn3ccnc3)cc(-c3ccc(S(C)(=O)=O)cc3)nc2c1C	218 to 219 °C
CS(=O)(=O)c1ccc(-c2cc(Cn3ccnc3)c3ccccc3n2)cc1	189 to 190 °C
CS(=O)(=O)c1ccc(-c2cc(Cn3ccnc3)c3cccc(-c4ccccc4)c3n2)cc1	196 to 198 °C
CS(=O)(=O)c1ccc(-c2cc(Cn3ccnc3)c3ccc4c(c3n2)CCCC4)cc1	247 to 248 °C

Now for a further compound.
(Q) Query melting point for CS(=O)(=O)c1ccc(-c2cc(Cn3ccnc3)c3ccc4ccccc4c3n2)cc1
(A) 216 to 217 °C

====

Target: COX-1 (Ovis aries)
Sequence (P05979 25-600): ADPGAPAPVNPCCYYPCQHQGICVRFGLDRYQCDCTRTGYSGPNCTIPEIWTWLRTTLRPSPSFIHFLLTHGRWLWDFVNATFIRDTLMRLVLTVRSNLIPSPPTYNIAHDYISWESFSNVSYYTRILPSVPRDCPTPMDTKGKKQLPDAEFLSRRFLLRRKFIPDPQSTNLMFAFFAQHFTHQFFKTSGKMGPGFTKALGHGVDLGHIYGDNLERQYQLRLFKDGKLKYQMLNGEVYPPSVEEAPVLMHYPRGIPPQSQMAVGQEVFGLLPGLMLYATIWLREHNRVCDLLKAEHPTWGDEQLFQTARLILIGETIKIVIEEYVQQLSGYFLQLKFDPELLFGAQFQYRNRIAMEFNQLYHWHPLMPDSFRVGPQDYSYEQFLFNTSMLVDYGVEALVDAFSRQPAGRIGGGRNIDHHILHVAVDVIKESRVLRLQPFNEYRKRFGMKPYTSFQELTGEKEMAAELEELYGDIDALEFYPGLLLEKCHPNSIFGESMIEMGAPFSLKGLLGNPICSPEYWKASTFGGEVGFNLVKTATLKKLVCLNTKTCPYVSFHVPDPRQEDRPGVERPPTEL
QUANTITY MEASURED: pIC50
Remember, pIC50 is on a log scale: it is -log10 of the molar concentration.

(Q) Print COX-1 (Ovis aries) pIC50 for Cc1ccc2c(Cn3ccnc3)cc(-c3ccc(S(C)(=O)=O)cc3)nc2c1C .
(A) 4.59
